Tested on: LOX IMVI melanoma
Assay: NCI tumour cell line growth inhibition, 48 h
TGI reference

> print(dat)
                                   compound  assay.endpoint    result
1  COc1ccc2ccccc2c1C1OC(=O)c2ccccc21 (stereo unspecified)             TGI  > 100 µM
2  COC(=O)C1=CC2C(=O)OC1CC2C#N (stereo unspecified)             TGI  > 100 µM

Exam item: I am curious: what TGI value has been reported for Cc1c2c(nn1C)CSCc1cc(n(C)n1)CSc1cc(c3ccccc3c1)OCCCc1c(C(=O)O)n(C)c3c-2c(Cl)ccc13 ?
Marked response: 12.1 µM

Exam item: I am curious: what TGI value has been reported for COc1ccc(C2N(NC(=O)c3ccncc3)C(=O)CS2(=O)=O)cc1F (stereo unspecified) ?
Marked response: > 100 µM

Exam item: I am curious: what TGI value has been reported for O=c1nc2oc3ccc4ccccc4c3cc-2s1 ?
Marked response: > 100 µM

Exam item: I am curious: what TGI value has been reported for O=C(Cn1c(C(=O)/C=C/c2cccs2)nc2ccccc21)c1ccc(Cl)cc1 ?
Marked response: 27.3 µM

Exam item: I am curious: what TGI value has been reported for COc1cc(/C=C2/C[C@H]3[C@@H]4CC=C5C[C@@H](OC(C)=O)CC[C@]5(C)[C@H]4CC[C@]3(C)NC2=O)cc(OC)c1OC ?
Marked response: > 100 µM

Exam item: I am curious: what TGI value has been reported for Oc1c([Si](c2ccccc2)(c2ccccc2)c2ccccc2)cc2ccccc2c1-c1c(O)c([Si](c2ccccc2)(c2ccccc2)c2ccccc2)cc2ccccc12 ?
Marked response: > 100 µM

Exam item: I am curious: what TGI value has been reported for COc1c(Cl)cc(NC(=S)C#N)cc1Cl ?
Marked response: 38.8 µM

Exam item: I am curious: what TGI value has been reported for COc1ccccc1Cc1nc(-c2ccccc2)nn(C2OC(COC(C)=O)C(OC(C)=O)C(OC(C)=O)C2OC(C)=O)c1=S (stereo unspecified) ?
Marked response: > 100 µM

Exam item: I am curious: what TGI value has been reported for CCOC(=O)C(=Cc1cccnc1C)C(=O)OCC ?
Marked response: 14.2 µM

====

System: UACC-257 melanoma
Assay: NCI tumour cell line growth inhibition, 48 h
Assay Endpoint: TGI

Example entries and their recorded answers appear below.
> print(dat)
                                   molecule    result
1  Cc1[nH]c2ccccc2c1C1Cc2ccccc2N1C(=O)/C=C/C(=O)O (stereo not drawn)  > 100 µM
2  CC(C)(Oc1ccc(Cl)cc1)C(=O)N(C(=O)N1CCC(c2ccccc2)CC1)c1ccccc1  > 100 µM

Let us examine a further case.
Exam item: Query for UACC-257 melanoma: what TGI does the record show for O=c1ccn(CC2(CO)CC(Cc3ccccc3)C2)c(=O)[nH]1 (stereo not drawn) ?
Marked response: > 100 µM

====

TGI reference
Tested on: HL-60(TB) leukemia
Assay: NCI tumour cell line growth inhibition, 48 h

> print(dat)
                                   molecule              system    result
1  COC(=O)c1c(O)ccc2c1c1c(n2Cc2cccc(C)c2)C(=O)c2ccccc2C1=O  HL-60(TB) leukemia   45.9 µM
2  O=C(OCCN=c1c2ccccc2ccc2ccccc12)c1ccc([N+](=O)[O-])cc1  HL-60(TB) leukemia  > 100 µM
3  Cc1ccc(N2C(=O)C3C=CC(n4[nH]c(=O)n(Cc5ccccc5)c4=O)CC3C2=O)cc1 (stereo not drawn)  HL-60(TB) leukemia  > 100 µM
4  CC1CC/C(=C\c2ccc(Cl)cc2)C2OC(N)=C(C#N)C(c3ccc(Cl)cc3)=C12 (stereo not drawn)  HL-60(TB) leukemia   27.4 µM
5          COc1ccc(C(=O)Cc2ccc(Br)cc2)cc1OC  HL-60(TB) leukemia  > 100 µM
6            CCOC(=O)C(=Cc1cccnc1C)C(=O)OCC  HL-60(TB) leukemia  > 100 µM
7         COc1ccc(C)cc1Nc1nnc(-c2ccccc2N)s1  HL-60(TB) leukemia     73 µM
8  Cc1cccc(C(C)C)c1NC(=O)CC1C(=O)Nc2ccccc2S1(=O)=O (stereo not drawn)  HL-60(TB) leukemia   28.4 µM

Exam item: I am curious: what TGI value has been reported for COc1ccc(C(=O)C(c2ccc(OC)cc2)C2(O)C(=O)Nc3c2ccc(Cl)c3C)cc1 (stereo not drawn) ?
Marked response: > 100 µM

====

Test system: EKVX NSCLC
Experiment: NCI tumour cell line growth inhibition, 48 h
Assay Endpoint: TGI

> print(dat)
                                   compound  assay.endpoint    result
1  COC(=O)C(Cc1ccccc1)NP(=O)(O)OCC1OC(n2cc(F)c(=O)[nH]c2=O)CC1O (stereo not drawn)             TGI  > 100 µM

Exam item: I am curious: what TGI value has been reported for O=CN/C=C/c1ccc(O)c(O)c1 ?
Marked response: > 100 µM

Exam item: I am curious: what TGI value has been reported for C[CH2][Sn]([CH2]C)([O]C(=O)C(OC(C)=O)c1ccccc1)[O]C(=O)C(OC(C)=O)c1ccccc1 (stereo not drawn) ?
Marked response: > 100 µM

====

Test system: SR leukemia
Test: NCI tumour cell line growth inhibition, 48 h
Assay Endpoint: TGI

Exam item: I am curious: what TGI value has been reported for COc1ccc(C2N(NC(=O)c3ccncc3)C(=O)CS2(=O)=O)cc1F (stereo not drawn) ?
Marked response: > 100 µM

Exam item: I am curious: what TGI value has been reported for CN(C)c1nc2oc(-c3ccccc3)c(-c3ccccc3)c2c2nnnn12 ?
Marked response: > 100 µM

Exam item: I am curious: what TGI value has been reported for CCOC(=O)c1cc2c3c(c(C(C)=O)c(O)c2[nH]1)N(CC(C)CC)CC3 (stereo not drawn) ?
Marked response: > 100 µM

====

Tested on: LOX IMVI melanoma
Test: NCI tumour cell line growth inhibition, 48 h
Assay Endpoint: TGI

> print(dat)
                                   compound  assay.endpoint    result
1  [N-]=[N+]=NC(CI)c1cn([C@H]2C[C@H](O)[C@@H](CO)O2)c(=O)[nH]c1=O (stereo not given in full)             TGI  > 100 µM

Exam item: I am curious: what TGI value has been reported for CCOC(=O)c1cc2c3c(c(C(C)=O)c(O)c2[nH]1)N(CC(C)CC)CC3 (stereo not given) ?
Marked response: > 100 µM

Exam item: I am curious: what TGI value has been reported for CN1CCN(CCCBr)CC1 ?
Marked response: > 100 µM

Exam item: I am curious: what TGI value has been reported for Cc1ccc(N2C(=O)C3C=CC(n4[nH]c(=O)n(Cc5ccccc5)c4=O)CC3C2=O)cc1 (stereo not given) ?
Marked response: > 100 µM

Exam item: I am curious: what TGI value has been reported for COc1cccc(-n2ncc3c(N/N=C/c4ccncc4)ncnc32)c1 ?
Marked response: > 25 µM

====

Tested on: HS 578T breast
Experiment: NCI tumour cell line growth inhibition, 48 h
Assay Endpoint: TGI

Example entries and their recorded answers appear below.
> print(dat)
                                   compound  assay.endpoint     result
1  O=c1cc(N2CCN(c3cc(=O)n4ccccc4n3)CC2)oc2ccccc12             TGI  > 80.2 µM
2  CC1CC/C(=C\c2ccc(Cl)cc2)C2OC(N)=C(C#N)C(c3ccc(Cl)cc3)=C12 (stereo unspecified)             TGI    49.1 µM
3  CCN(CC)Cc1ccc(Nc2nccc(-c3cnn4ncccc34)n2)cc1             TGI   0.117 µM
4  CN(C)c1nc2oc(-c3ccccc3)c(-c3ccccc3)c2c2nnnn12             TGI   > 100 µM
5  CC1(C)C2C=CC1(C)C1(CC2)OCCO1 (stereo unspecified)             TGI   > 100 µM

Exam item: I am curious: what TGI value has been reported for O=C(NN1C(=O)CSC12CCCC2)c1[nH]c2ccc(Br)cc2c1-c1ccccc1 ?
Marked response: > 100 µM

Exam item: I am curious: what TGI value has been reported for O=C1c2ccccc2-c2c1c1ccccc1c(=O)n2CCN1CCOCC1 ?
Marked response: > 100 µM

Exam item: I am curious: what TGI value has been reported for Oc1c([Si](c2ccccc2)(c2ccccc2)c2ccccc2)cc2ccccc2c1-c1c(O)c([Si](c2ccccc2)(c2ccccc2)c2ccccc2)cc2ccccc12 ?
Marked response: > 100 µM

Exam item: I am curious: what TGI value has been reported for O=[N+]([O-])c1cccc([As]=[As]c2cccc([N+](=O)[O-])c2)c1 (stereo unspecified) ?
Marked response: 0.498 µM

Exam item: I am curious: what TGI value has been reported for CCCC(=O)NC(Nc1ccc(S(=O)(=O)Nc2nc(C)cc(C)n2)cc1)(C(F)(F)F)C(F)(F)F ?
Marked response: > 100 µM

Exam item: I am curious: what TGI value has been reported for O=C(COc1ccc(/C=C2\Oc3ccccc3C2=O)cc1)Nc1nc2c(s1)CCCC2 ?
Marked response: 7.78 µM

Exam item: I am curious: what TGI value has been reported for CCCCCC(C)SC1(C(=O)OC)CC(OC(C)=O)C(NC(C)=O)C([C@H](OC(C)=O)[C@@H](COC(C)=O)OC(C)=O)O1 (stereo partly specified) ?
Marked response: 97 µM

Exam item: I am curious: what TGI value has been reported for COc1c(O)cc(O)c2c(=O)cc(-c3ccccc3)oc12 ?
Marked response: > 100 µM
